Recorded values, source PubChem BioAssay.

- experiment: S. cerevisiae RM11-1a growth modifiers, primary screen, strain RM11-1a, OD600, basal, 24 h (AID 1177);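 also: cultures grown under basal conditions with no added stressor; test concentration not given here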
- condition-details: OD600, 24 h, higher = more signal, called active from +8 up or from −8 down
Recorded z-score, one value per entry.
No unit in the answer, please; the number alone is enough.

Take a look at these entries with their results.
smi | z-score
C=C(COC)C(=O)CC[C@H](OC(C)=O)c1cccc(OCCO)c1 | -0.496
C=CC[C@@]1(C(=O)N2CCOCC2)N=C(c2ccc(OCCCO)cc2)O[C@@H]1c1ccccc1N=[N+]=[N-] | 0.367
CCCCC=C[C@@H](NC(=O)c1ccc(C(=O)OC)cc1)c1ccccc1 | 1.18

Query: Please report the recorded z-score for "COc1ccc(CCN2C(=O)[C@@]3(Cc4ccccc42)c2ccccc2C(=O)N(Cc2ccccc2Cl)[C@H]3c2ccc(CO)cc2)cc1" .
Result: 0.215

Query: Input "CC(C)N1C(=O)C[C@@](C(=O)NCc2ccccc2)(c2ccc([N+](=O)[O-])cc2)[C@H]1c1ccc(CO)cc1"
Result: 0.131
